- Subject Of Test: Progesterone receptor (Homo sapiens)
- Experimental Details: qHTS assay to identify small molecule antagonists of the progesterone receptor (PR) signaling pathway (AID 1346795)
- Condition: PR-UAS-bla HEK293T, beta-lactamase FRET ratio, 16 h; series mostly up to 92.4 µM
Results filed as inconclusive are left out. Active and inactive are the calls of the source. The call rests on the fitted dose curve; in most records, active means well fitted inhibition curve with a large enough effect in the signal ratio in the repeat runs (not every such curve was filed as active); inconclusive means weak or mixed curves; inactive means flat fitted curve, though single readings scatter; the % refers to the signal ratio.
Please state which outcome applies, choosing from active, inactive

{"Smiles Representation": "CCCC(=O)OCC(COC(=O)CCC)OC(=O)CCC", "Category Label": "inactive"}
{"Smiles Representation": "Cc1nc(Nc2ncc(C(=O)Nc3c(C)cccc3Cl)s2)cc(N2CCN(CCO)CC2)n1", "Category Label": "active"}
{"Smiles Representation": "C/C=C/C=N/NC(=O)c1ccncc1", "Category Label": "inactive"}
{"Smiles Representation": "CCCCCCCCCC(=O)N(C)C", "Category Label": "inactive"}
{"Smiles Representation": "NCCCC(O)(P(=O)(O)O)P(=O)(O)O", "Category Label": "inactive"}
{"Smiles Representation": "CCCCCCCC(OC)OC", "Category Label": "inactive"}

Query: What outcome does the record of this test show for "CCc1cccc(C)c1" ?
Result: inactive

Query: Repeat with "COc1ccccc1C=O"
Result: inactive

Query: What do you have for "CCOC(/C=C(\C)CCC=C(C)C)OCC" ?
Result: inactive
